- Tested on: MOLM16 cells
- Assay Protocol: CellTiter-Glo cell viability
- Assay type: cell-based
- Experimental Setup: MOLM16, 72 h
Measure Name: EC50 (µM)
Unit µM implied. Number only.

Q) Determine its reported EC50: `C[C@H](N)C(=O)O[C@@H](C)C(=O)N1CCC(CCn2c(Sc3cc4c(cc3Br)OCO4)nc3c(N)ncnc32)CC1`
A) 0.367

====

- Test system: BaF3 cells harboring FLT3-ITD F691L
- Assay Protocol: CellTiter-Glo cell viability
- Format: cell-based, murine
- Experimental Setup: Mus musculus; BaF3 FLT3-ITD-F691L, 72 hours
Catalogue of pEC50 values
Hey, just a heads up that pEC50 is the negative log base 10 of the concentration in molar.

Compound | pEC50
CC1(COc2ccc3c(c2)ncn3-c2ccc3cccc(N4CCC(N)CC4)c3n2)COC1 [crenolanib] | 7.05

Then this compound:
Q) Determine its reported pEC50: C[C@H](N)C(=O)O[C@@H](C)C(=O)N1CCC(CCn2c(Sc3cc4c(cc3Br)OCO4)nc3c(N)ncnc32)CC1 [MPC-0767]
A) 6.41

====

- Test system: OCIAML3 cells
- Assay Protocol: CellTiter-Glo cell viability
- Assay type: cell-based
- Experimental Setup: Homo sapiens, OCI-AML-3; OCIAML3, 72 h
Measure Name: EC50 (µM)
Unit µM implied. Number only.

Q) Determine its reported EC50: `C[C@H](N)C(=O)O[C@@H](C)C(=O)N1CCC(CCn2c(Sc3cc4c(cc3Br)OCO4)nc3c(N)ncnc32)CC1`
A) 1.81
